Recorded values, source patent US20110020460A1.

# SYSTEM: human GPR119 (Homo sapiens, UniProt Q8TDV5)
# Construct: host or cells: HEK293-CRE-beta-lactamase
# Sequence (Q8TDV5 1-335): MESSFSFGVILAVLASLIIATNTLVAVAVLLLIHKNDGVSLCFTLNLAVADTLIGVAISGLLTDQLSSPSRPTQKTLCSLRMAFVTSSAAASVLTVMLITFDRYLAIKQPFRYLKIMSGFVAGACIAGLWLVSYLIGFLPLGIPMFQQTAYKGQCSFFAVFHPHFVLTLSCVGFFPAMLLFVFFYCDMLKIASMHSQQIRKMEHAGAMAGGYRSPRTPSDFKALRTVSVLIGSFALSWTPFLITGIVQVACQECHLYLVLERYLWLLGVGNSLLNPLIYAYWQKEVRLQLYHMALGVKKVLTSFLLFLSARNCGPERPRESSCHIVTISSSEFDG
# ASSAY METHOD TEXT: cAMP HTRF functional assay (hGPR119 HEK-CRE beta-lactamase cells)
# Type: cell-based
# ASSAY SETUP: **curve was extrapolated to 100% to calculate an EC50
OUTCOME MEASURE: pEC50
One number for each entry, as −log10 of the molar value.

Give the measured pEC50 of CC(C)OC(=O)N1CCC(n2ncc(COc3ccc(-c4nnn[nH]4)cc3F)c2C#N)CC1 . 5.35

###

# SYSTEM: human GPR119 (Homo sapiens)
# Construct: host or cells: HEK293-CRE-beta-lactamase
# Sequence (Q8TDV5 1-335): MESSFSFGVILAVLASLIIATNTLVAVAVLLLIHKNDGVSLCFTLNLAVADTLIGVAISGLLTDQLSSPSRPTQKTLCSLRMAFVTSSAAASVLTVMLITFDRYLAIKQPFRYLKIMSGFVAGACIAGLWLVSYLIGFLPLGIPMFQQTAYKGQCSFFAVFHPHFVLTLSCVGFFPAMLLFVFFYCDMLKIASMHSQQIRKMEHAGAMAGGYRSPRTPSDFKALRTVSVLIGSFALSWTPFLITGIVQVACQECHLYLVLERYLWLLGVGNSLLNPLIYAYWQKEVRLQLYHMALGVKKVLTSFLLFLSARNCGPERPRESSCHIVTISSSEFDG
# ASSAY METHOD TEXT: GPR119 radioligand binding assay ([3H]-Compound A or [3H]-Compound B, HEK 293FT membranes)
# ASSAY SETUP: Ki from IC50 by Cheng-Prusoff; one value per run; read-out: Human Binding Ki
# Description: Cells were harvested via centrifugation (3,000×g, 10 minutes), washed once on DPBS (minus Ca++/Mg++), resuspended in 0.25M sucrose, 25 mM HEPES, 0.5 mM EDTA, pH 7.4 and frozen at −80 degrees Celsius. […] IC50 determinations were made from competition curves, analyzed with a proprietary curve fitting program (SIGHTS) and a 4-parameter logistic dose response equation. Ki values were calculated from IC50 values, using the Cheng-Prusoff equation.
OUTCOME MEASURE: Ki (µM)
Answers are plain numbers, in µM.

# count of solved cases: 6
• Cc1ncccc1OCc1cnn(C2CCN(C(=O)OC3(C)CC3)CC2)c1C#N = 2.02
• CC1(OC(=O)N2CCC(n3ncc(COc4cccc(F)c4F)c3C#N)CC2)CC1 = 0.723
• CC1(OC(=O)N2CCC(n3ncc(COc4cc(F)ccc4F)c3C#N)CC2)CC1 = 0.149
• CC(C)OC(=O)N1CCC(n2ncc(COc3ccc(-c4cncn4C)cc3F)c2C#N)CC1 = 0.087
• Cc1nc(S(C)(=O)=O)ccc1NCc1cnn(C2CCN(C(=O)OC(C)C)CC2)c1C#N = 0.416
• Cn1nnnc1-c1ccc(OCc2cnn(C3CCN(C(=O)OC4(C)CC4)CC3)c2C#N)cc1 = 0.418

Give one value of Ki per listed compound.
1. CC(C)OC(=O)N1CCC(n2ncc(COc3ccc(-n4cccn4)cc3)c2C#N)CC1
2. CC(C)OC(=O)N1CCC(n2ncc(COc3ccc(-c4nnn(CCO)n4)cc3F)c2C#N)CC1

1: 0.153; 2: 0.159

###

# SYSTEM: human GPR119 (Homo sapiens, UniProt Q8TDV5)
# Construct: host or cells: U2OS
# ASSAY METHOD TEXT: beta-arrestin functional assay (DiscoverX PathHunter U2OS hGPR119 beta-arrestin cells)
# Type: cell-based
# ASSAY SETUP: **curve was extrapolated to 100% to calculate an EC50; read-out: Human B-arrestin Functional EC50
# Procedure: GPR119 agonist activity was also determined with a cell-based assay utilizing DiscoverX PathHunter β-arrestin cell assay technology and their U2OS hGPR119 β-arrestin cell line (DiscoverX Cat #93-0356C3). In this assay, agonist activation is determined by measuring agonist-induced interaction of 13-arrestin with activated GPR119. […] EC50 determinations were made from an agonist-response curves analyzed with a curve fitting program using a 4-parameter logistic dose response equation.
# Sequence (P32121 whole entry partner, one chain of several): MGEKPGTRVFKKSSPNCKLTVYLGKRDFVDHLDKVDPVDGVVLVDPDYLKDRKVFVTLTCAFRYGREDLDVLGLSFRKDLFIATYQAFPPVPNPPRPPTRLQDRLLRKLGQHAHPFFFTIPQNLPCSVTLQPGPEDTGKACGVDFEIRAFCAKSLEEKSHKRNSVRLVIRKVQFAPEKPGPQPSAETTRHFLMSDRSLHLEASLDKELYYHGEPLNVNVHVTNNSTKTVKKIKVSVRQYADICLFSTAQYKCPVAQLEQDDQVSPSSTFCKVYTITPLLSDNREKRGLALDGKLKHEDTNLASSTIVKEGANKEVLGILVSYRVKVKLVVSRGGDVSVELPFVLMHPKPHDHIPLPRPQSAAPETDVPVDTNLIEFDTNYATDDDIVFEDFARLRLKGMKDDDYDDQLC
OUTCOME MEASURE: EC50 (nM)
One number for each entry, in nM.

• CC1(OC(=O)N2CCC(n3ncc(COc4ccc(C(N)=O)cc4)c3C#N)CC2)CC1 = 420

// next item, EC50 requested
Test system human GPR119 (Homo sapiens, UniProt Q8TDV5); read-out EC50; what value for CC(C)OC(=O)N1CCC(n2ncc(COc3ccc(-c4nccn4C)cc3F)c2C#N)CC1 ? 1330

###

# SYSTEM: human GPR119 (Homo sapiens)
# Construct: host or cells: HEK293-CRE-beta-lactamase
# ASSAY METHOD TEXT: GPR119 radioligand binding assay ([3H]-Compound A or [3H]-Compound B, HEK 293FT membranes)
# ASSAY SETUP: Ki from IC50 by Cheng-Prusoff; one value per run; read-out: Human Binding Ki
OUTCOME MEASURE: pKi
Answers are plain numbers, as −log10 of the molar value.

- CC(C)OC(=O)N1CCC(n2ncc(COc3ccc(-n4cnnn4)cc3)c2C#N)CC1: 8.30

// next item, pKi requested
Test system human GPR119 (Homo sapiens); read-out pKi; what value for CC(C)OC(=O)N1CCC(n2ncc(COc3c(F)ccc(F)c3F)c2C#N)CC1 ? 6.29

###

# SYSTEM: human GPR119 (Homo sapiens)
# Construct: host or cells: HEK293-CRE-beta-lactamase
# Sequence (Q8TDV5 1-335): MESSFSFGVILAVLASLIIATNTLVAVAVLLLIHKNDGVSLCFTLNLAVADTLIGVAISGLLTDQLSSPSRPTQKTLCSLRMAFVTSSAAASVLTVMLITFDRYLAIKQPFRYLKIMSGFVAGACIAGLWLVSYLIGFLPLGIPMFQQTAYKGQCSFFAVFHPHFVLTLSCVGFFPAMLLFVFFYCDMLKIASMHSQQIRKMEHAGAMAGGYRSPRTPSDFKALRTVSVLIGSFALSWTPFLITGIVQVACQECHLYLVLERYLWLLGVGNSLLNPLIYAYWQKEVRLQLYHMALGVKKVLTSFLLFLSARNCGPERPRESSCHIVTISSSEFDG
# ASSAY METHOD TEXT: beta-lactamase reporter functional assay (hGPR119 HEK293-CRE beta-lactamase cells)
# Type: cell-based
# ASSAY SETUP: percent of maximal activity relative to standard GPR119 agonist (WO2005121121) at 10 microM; one value per run; read-out: Intrinsic Activity* (B-lactamase)
Could you please report measured Emax for the items listed next?
Numbers only, in %.

# count of solved cases: 2
* Cc1nc(-n2cncn2)ccc1NCc1cnn(C2CCN(C(=O)OC(C)C)CC2)c1C#N | 100
* CC(C)OC(=O)N1CCC(n2ncc(COc3c(F)ccc(F)c3F)c2C#N)CC1 | 86

Give one value of Emax per listed compound.
1. Cc1ncccc1OCc1cnn(C2CCN(C(=O)OC(C)C)CC2)c1C#N
2. CC(C)OC(=O)N1CCC(n2ncc(CCc3ccc(S(C)(=O)=O)cc3F)c2C#N)CC1

1: 100; 2: 98

###

# SYSTEM: human GPR119 (Homo sapiens)
# Construct: host or cells: U2OS
# ASSAY METHOD TEXT: beta-arrestin functional assay (DiscoverX PathHunter U2OS hGPR119 beta-arrestin cells)
# Type: cell-based
# ASSAY SETUP: U2OS; percent of maximal activity relative to standard GPR119 agonist (WO2005121121) at 10 microM; one value per run; read-out: Intrinsic Activity* (B-arrestin)
Could you please report measured Emax for the items listed next?
One number for each entry, in %.

Give one value of Emax per listed compound.
1. CC1(OC(=O)N2CCC(n3ncc(COc4ccc(C#N)cc4)c3C#N)CC2)CC1
2. CC1(OC(=O)N2CCC(n3ncc(COc4c(F)ccc(F)c4F)c3C#N)CC2)CC1
3. CC1(OC(=O)N2CCC(n3ncc(COc4cccc(F)c4F)c3C#N)CC2)CC1
4. CC1(OC(=O)N2CCC(n3ncc(COc4ccc(C(N)=O)cc4F)c3C#N)CC2)CC1

[67, 92, 109, 104]

###

Could you please report measured Emax for the items listed next?
# SYSTEM: human GPR119 (Homo sapiens)
# Construct: host or cells: U2OS
# ASSAY METHOD TEXT: beta-arrestin functional assay (DiscoverX PathHunter U2OS hGPR119 beta-arrestin cells)
# Format: cell-based
# ASSAY SETUP: U2OS; percent of maximal activity relative to standard GPR119 agonist (WO2005121121) at 10 microM; one value per run; read-out: Intrinsic Activity* (B-arrestin)
Answers are plain numbers, in %.

# count of solved cases: 2
• CC(C)OC(=O)N1CCC(n2ncc(COc3ccc(-n4cnnn4)cc3F)c2C#N)CC1 [Example 3] = 111
• CC1(OC(=O)N2CCC(n3ncc(COc4cc(F)ccc4F)c3C#N)CC2)CC1 [Example 13] = 119

// next item, Emax requested
Give the measured Emax of CC(C)OC(=O)N1CCC(n2ncc(COc3ccc(C#N)cc3F)c2C#N)CC1 [Example 8] . 80
